Listing of entries alongside the reported Activity_index.
# Test system: Salmonella typhimurium
# Test: Mutagenicity in Salmonella typhimurium TA100 assessed as assessed as mutagenic index at 1000 ug/plate by Ames test
# Format: toxicity, organism-based
# Reported Conditions: salmonella enterica subsp. enterica serovar typhimurium
Lab note: record the figure alone, no unit after it.

{"columns": ["Compound", "Assay Target", "Activity_index"],
 "data": [
  ["O=C(/C=C/c1ccccc1)N1CCC(O)CC1", "Salmonella typhimurium", 0.9],
  ["CC(C)C(CO)NC(=O)/C=C/c1ccccc1 (racemic)", "Salmonella typhimurium", 1],
  ["CCC(CO)NC(=O)/C=C/c1ccccc1 (racemic)", "Salmonella typhimurium", 0.8],
  ["O=C(/C=C/c1ccccc1)N[C@H]1CCCC[C@@H]1O (racemic)", "Salmonella typhimurium", 0.9],
  ["CC(CO)NC(=O)/C=C/c1ccccc1 (racemic)", "Salmonella typhimurium", 0.9],
  ["CCC(O)CNC(=O)/C=C/c1ccccc1 (racemic)", "Salmonella typhimurium", 0.9]
]}

// below: Activity_index requested for another compound
Input line: Output measured Activity_index for this item: CC(O)CNC(=O)/C=C/c1ccccc1 (racemic)
Output line: 1

---

# Test: Protection index, ratio of TD50 for neurotoxicity in ip dosed albino Carworth Farms No.1 mouse to ED50 for anticonvulsant activity in ip dosed albino Carworth Farms No.1 mouse assessed as protection against maximal electroshock-induced seizures
# Format: toxicity, organism-based
# Reported Conditions: in vivo, read-out: Ratio TD50/ED50
Experimental Readout: selectivity ratio
Lab note: record the figure alone, no unit after it.

Input line: Output measured selectivity ratio for this item: CC(O)CNC(=O)/C=C/c1ccccc1 (racemic)
Output line: 2.9

Input line: Output measured selectivity ratio for this item: CC(CO)NC(=O)/C=C/c1ccccc1 (racemic)
Output line: 2.6

---

# Test system: Mus musculus
# Test: Anticonvulsant activity in albino Carworth Farms No.1 mouse assessed as protection against maximal electroshock-induced seizures at 300 mg/kg, ip after 4 hrs
# Format: functional, organism-based
Calls of active or inactive are those of the source. No cut-off for these calls is given here.
Write down one outcome, taken from 1 (yes) for active, 0 (no) for inactive

Take a look at these entries with their results.
{"columns": ["Compound", "Class Name"],
 "data": [
  ["CC(CO)NC(=O)/C=C/c1ccccc1 (racemic)", "1 (yes)"],
  ["CC(=O)OCC(C)NC(=O)/C=C/c1ccccc1 (racemic)", "0 (no)"],
  ["O=C(/C=C/c1ccccc1)N[C@H]1CCCC[C@@H]1O (racemic)", "0 (no)"],
  ["O=C(/C=C/c1ccccc1)NCCCCCO", "0 (no)"],
  ["CCC(O)CNC(=O)/C=C/c1ccccc1 (racemic)", "0 (no)"]
]}

Kindly consider the entry below.
Input line: Call for entry COC(=O)C(NC(=O)/C=C/c1ccccc1)C(C)C (racemic) :
Output line: 0 (no)

---

Listing of entries alongside the reported Rm.
# Test: Lipophilicity of the compound using 95% methanol in water at 1 mg/ml by RT-TLC analysis
# Assay type: physicochemical
# Reported Conditions: buffer
Lab note: record the figure alone, no unit after it.

Consider the following illustrative entries.
{"columns": ["Compound", "Measured Result"],
 "data": [
  ["CC(=O)OCC(C)NC(=O)/C=C/c1ccccc1 (racemic)", -0.58],
  ["O=C(/C=C/c1ccccc1)N1CCC(O)CC1", -0.6]
]}

Input line: Output measured Rm for this item: CCC(CO)NC(=O)/C=C/c1ccccc1 (racemic)
Output line: -0.66

---

# Test system: Salmonella typhimurium
# Test: Mutagenicity in Salmonella typhimurium TA100 assessed as mutagenic index at 20 ug/plate by Ames test
# Type: toxicity, organism-based
# Reported Conditions: salmonella enterica subsp. enterica serovar typhimurium
Experimental Readout: Activity_index
Lab note: record the figure alone, no unit after it.

{"columns": ["Compound", "Activity_index"],
 "data": [
  ["CCC(CO)NC(=O)/C=C/c1ccccc1 (racemic)", 0.8]
]}

Input line: Output measured Activity_index for this item: CC(C)C(CO)NC(=O)/C=C/c1ccccc1 (racemic)
Output line: 1

Input line: Output measured Activity_index for this item: "O=C(/C=C/c1ccccc1)N1CCC(O)CC1"
Output line: 0.9

Input line: Output measured Activity_index for this item: CC(O)CNC(=O)/C=C/c1ccccc1 (racemic)
Output line: 0.9

Input line: Output measured Activity_index for this item: O=C(/C=C/c1ccccc1)N[C@H]1CCCC[C@@H]1O (racemic)
Output line: 1

Input line: Output measured Activity_index for this item: CCC(O)CNC(=O)/C=C/c1ccccc1 (racemic)
Output line: 0.8

Input line: Output measured Activity_index for this item: CC(CO)NC(=O)/C=C/c1ccccc1 (racemic)
Output line: 0.8

---

# Test: in vitro
# Reported Conditions: human, HepG2 cells
# Description: Hepatotoxicity against human HepG2 cells assessed as cell viability at 25 uM after 24 hrs by trypan blue exclusion assay (Rvb = 97 to 99%)
Listing of entries alongside the reported viability at 24 h, 25 µM.
Could you give me the number in %? Just the number is fine.

{"columns": ["Compound", "Value Units", "viability at 24 h, 25 µM"],
 "data": [
  ["CC(CO)NC(=O)/C=C/c1ccccc1 (racemic)", "%", 98],
  ["COc1cccc2c1C(=O)c1c(O)c3c(c(O)c1C2=O)C[C@@](O)(C(=O)CO)C[C@@H]3O[C@H]1C[C@H](N)[C@H](O)[C@H](C)O1", "%", 83],
  ["CC(O)CNC(=O)/C=C/c1ccccc1 (racemic)", "%", 99],
  ["CC(C)C(CO)NC(=O)/C=C/c1ccccc1 (racemic)", "%", 98]
]}

// below: viability at 24 h, 25 µM requested for another compound
Input line: Output measured viability at 24 h, 25 µM for this item: CCC(O)CNC(=O)/C=C/c1ccccc1 (racemic)
Output line: 97

---

# Test: Lipophilicity of the compound using 85% methanol in water at 1 mg/ml by RT-TLC analysis
# Assay type: physicochemical
# Reported Conditions: buffer
Entries whose Rm is below -0.2 take yes; entries at or above -0.2 take no.

Take a look at these entries with their results.
{"columns": ["Molecule", "Class Name"],
 "data": [
  ["CCC(CO)NC(=O)/C=C/c1ccccc1 (racemic)", "yes"],
  ["CCC(COC(C)=O)NC(=O)/C=C/c1ccccc1 (configuration not stated)", "no"]
]}

Input line: Lab note: Rm threshold -0.2. Does this molecule come in strictly under it? COC(=O)C(NC(=O)/C=C/c1ccccc1)C(C)C (racemic)
Output line: no

Input line: Lab note: Rm threshold -0.2. Does this molecule come in strictly under it? "O=C(/C=C/c1ccccc1)N1CCC(O)CC1"
Output line: yes

Input line: Lab note: Rm threshold -0.2. Does this molecule come in strictly under it? "O=C(/C=C/c1ccccc1)NCCCCCO"
Output line: yes

Input line: Lab note: Rm threshold -0.2. Does this molecule come in strictly under it? "CC(=O)CNC(=O)/C=C/c1ccccc1"
Output line: yes

Input line: Lab note: Rm threshold -0.2. Does this molecule come in strictly under it? "CC(C)(CO)NC(=O)/C=C/c1ccccc1"
Output line: yes

Input line: Lab note: Rm threshold -0.2. Does this molecule come in strictly under it? CC(C)C(CO)NC(=O)/C=C/c1ccccc1 (racemic)
Output line: no

Input line: Lab note: Rm threshold -0.2. Does this molecule come in strictly under it? CC(NC(=O)/C=C/c1ccccc1)C(=O)NCN1CCCCC1 (racemic)
Output line: no

Input line: Lab note: Rm threshold -0.2. Does this molecule come in strictly under it? CC(CO)NC(=O)/C=C/c1ccccc1 (racemic)
Output line: yes

Input line: Lab note: Rm threshold -0.2. Does this molecule come in strictly under it? O=C(/C=C/c1ccccc1)N[C@H]1CCCC[C@@H]1O (racemic)
Output line: no

Input line: Lab note: Rm threshold -0.2. Does this molecule come in strictly under it? CC(=O)OCC(C)NC(=O)/C=C/c1ccccc1 (racemic)
Output line: yes

---

# Tested on: Salmonella typhimurium
# Test: Mutagenicity in Salmonella typhimurium TA98 assessed as number of revertants at 100 ug/plate by Ames test (reference value: 23 +/- 3)
# Assay type: toxicity, organism-based
# Reported Conditions: salmonella enterica subsp. enterica serovar typhimurium
Entries whose Activity is below 20 take fulfilled; entries at or above 20 take not fulfilled.

Take a look at these entries with their results.
{"columns": ["Molecule", "Assay Target", "Class Name"],
 "data": [
  ["CC(O)CNC(=O)/C=C/c1ccccc1 (racemic)", "Salmonella typhimurium", "not fulfilled"],
  ["CCC(CO)NC(=O)/C=C/c1ccccc1 (racemic)", "Salmonella typhimurium", "not fulfilled"],
  ["O=C(/C=C/c1ccccc1)N1CCC(O)CC1", "Salmonella typhimurium", "fulfilled"],
  ["CC(C)C(CO)NC(=O)/C=C/c1ccccc1 (racemic)", "Salmonella typhimurium", "fulfilled"],
  ["CCC(O)CNC(=O)/C=C/c1ccccc1 (racemic)", "Salmonella typhimurium", "not fulfilled"]
]}

Kindly consider the entry below.
Input line: Lab note: Activity threshold 20. Does this molecule come in strictly under it? CC(CO)NC(=O)/C=C/c1ccccc1 (racemic)
Output line: not fulfilled
